target-of-assay: CYP142 (Mycobacterium tuberculosis, UniProt P9WPL5)
Sequence (P9WPL5 whole entry): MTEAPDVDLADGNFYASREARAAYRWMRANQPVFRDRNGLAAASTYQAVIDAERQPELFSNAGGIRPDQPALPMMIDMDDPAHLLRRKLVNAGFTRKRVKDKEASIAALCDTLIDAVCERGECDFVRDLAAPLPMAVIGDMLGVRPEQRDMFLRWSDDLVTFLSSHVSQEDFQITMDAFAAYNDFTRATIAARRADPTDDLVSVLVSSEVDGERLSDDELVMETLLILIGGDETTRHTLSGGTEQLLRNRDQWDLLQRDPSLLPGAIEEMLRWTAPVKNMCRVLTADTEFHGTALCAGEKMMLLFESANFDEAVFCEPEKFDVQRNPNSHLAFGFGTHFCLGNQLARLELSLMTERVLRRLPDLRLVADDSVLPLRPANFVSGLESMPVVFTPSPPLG
protocol-notes: biochemical
I'd be grateful if you could share measured pKd for these entries.
Value format note: pKd is -log10 of concentration (mol/L); just state the number.

Given the entry CN(c1ccncc1)c1ccc(NC(=O)c2ccccc2)cc1 [5c] , report its measured pKd.
5.51

State the recorded pKd for this entry: COc1ccc(CNc2ccc(N(C)c3ccncc3)cc2)cc1 [5n]
6.70

If you can, please state the reported pKd value of CS(=O)(=O)Nc1ccc(Cc2ccncc2)cc1 [3g] .
5.96

Data request, read-out pKd, for C[C@@H](NC(=O)c1ccc(Cc2ccncc2)cc1)c1ccccc1 [5i]
6.19

Field request: pKd | item: O=C(Nc1ccc(Cc2ccncc2)cc1)c1ccccc1 [5a]
5.96

* * *

Record form. Attribute: Δλmax (nm) CYP121, fragment screen. Fill in for each entry.
target-of-assay: CYP121 (Mycobacterium tuberculosis, UniProt P9WPP7)
Sequence (P9WPP7 whole entry, the tested form may be a part): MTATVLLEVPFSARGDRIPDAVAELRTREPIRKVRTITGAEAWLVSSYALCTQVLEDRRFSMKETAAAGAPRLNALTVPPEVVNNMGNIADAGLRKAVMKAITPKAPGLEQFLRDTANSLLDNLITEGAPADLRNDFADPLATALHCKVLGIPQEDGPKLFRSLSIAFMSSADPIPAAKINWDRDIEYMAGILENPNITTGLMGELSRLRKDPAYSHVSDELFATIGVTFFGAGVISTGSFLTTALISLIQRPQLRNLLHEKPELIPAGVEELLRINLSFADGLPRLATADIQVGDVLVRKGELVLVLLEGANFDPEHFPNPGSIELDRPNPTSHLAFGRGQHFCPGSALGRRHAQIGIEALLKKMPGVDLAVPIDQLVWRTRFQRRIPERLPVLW
study-conditions: fragment 1 mM, P450 4-6 µM; relative to DMSO (417 nm)

Quick one: Δλmax (nm) CYP121, fragment screen of "Nc1ccncc1" ?
0 nm

Sample "Clc1cccnc1Cl" — what was its Δλmax (nm) CYP121, fragment screen?
0 nm

Endpoint output: Δλmax (nm) CYP121, fragment screen of "Nc1ccccn1" . Value?
0 nm

Dear colleague, I am looking for the recorded Δλmax (nm) CYP121, fragment screen of the following molecule: "CC(C)c1cc(C(=O)O)[nH]n1"
0 nm

Look up Δλmax (nm) CYP121, fragment screen: "O=c1ccc(Br)c[nH]1"
0 nm

Quick one: Δλmax (nm) CYP121, fragment screen of "O=C(O)c1ccc(-n2cccn2)cc1" ?
0 nm

Field request: Δλmax (nm) CYP121, fragment screen | item: "c1ccc(-c2ncc[nH]2)cc1"
0 nm

What value of Δλmax (nm) CYP121, fragment screen has been recorded for this entry: "O=C(O)CCc1nc2ccccc2[nH]1"
0 nm

# get_value(readout='Δλmax (nm) CYP121, fragment screen', item= "N#Cc1ccncc1" )
0 nm

What value of measured Δλmax (nm) CYP121, fragment screen is listed for "N#Cc1ncccc1F" ?
0 nm

Entry "O=C(O)[C@@H]1Cc2ccccc2CN1" : reported Δλmax (nm) CYP121, fragment screen = ?
1 nm

Given the entry "c1ccc(N2CCOCC2)nc1" , report its measured Δλmax (nm) CYP121, fragment screen.
0 nm

Quick one: Δλmax (nm) CYP121, fragment screen of "OCc1ccc(Cn2cncn2)cc1" ?
0 nm

Any idea what Δλmax (nm) CYP121, fragment screen was measured for "Cc1cc(N)n(-c2ccccc2)n1" ?
0 nm

Requested read-out: Δλmax (nm) CYP121, fragment screen. Entry: "OB(O)c1ccccc1"
0 nm

Requested field: Δλmax (nm) CYP121, fragment screen. Item: "N#Cc1cccc(-n2ccnc2)c1"
0 nm

Item "NC1=NN(c2ccccc2)C(=O)C1" has what recorded Δλmax (nm) CYP121, fragment screen?
0 nm

Find the recorded Δλmax (nm) CYP121, fragment screen belonging to "O=C(O)c1ccnnc1" and report it.
-1 nm

What value of Δλmax (nm) CYP121, fragment screen has been reported for the following molecule? "Cc1cc(C)n(-c2ccc(N)cc2)n1"
-1 nm

Δλmax (nm) CYP121, fragment screen for "c1ccc(Cc2cccnc2)cc1" ?
2 nm

Return reported Δλmax (nm) CYP121, fragment screen; argument: "CCc1nc(C)c[nH]1"
-1 nm

Which Δλmax (nm) CYP121, fragment screen value is on record for "OCc1ccc(-c2ccncc2)cc1" ?
1 nm

Which Δλmax (nm) CYP121, fragment screen value belongs to "Oc1cccnc1O" ?
-1 nm

Fill in: Δλmax (nm) CYP121, fragment screen of "O=C(O)c1ccccc1-n1cccn1" is ___
0 nm

So what's the measured Δλmax (nm) CYP121, fragment screen for this one? "Cc1nn(-c2ccccc2)nc1C(=O)O"
0 nm

// lookup Δλmax (nm) CYP121, fragment screen for "Nc1ccc(Oc2ccccc2)nc1"
1 nm

So what does the record say about Δλmax (nm) CYP121, fragment screen for "c1ccc(-c2cc[nH]n2)cc1" ?
0 nm

For the molecule "O=C(O)CCc1ccccc1" , what Δλmax (nm) CYP121, fragment screen is on record?
0 nm

* * *

target-of-assay: CYP125 (Mycobacterium tuberculosis)
Sequence (P9WPP1 whole entry): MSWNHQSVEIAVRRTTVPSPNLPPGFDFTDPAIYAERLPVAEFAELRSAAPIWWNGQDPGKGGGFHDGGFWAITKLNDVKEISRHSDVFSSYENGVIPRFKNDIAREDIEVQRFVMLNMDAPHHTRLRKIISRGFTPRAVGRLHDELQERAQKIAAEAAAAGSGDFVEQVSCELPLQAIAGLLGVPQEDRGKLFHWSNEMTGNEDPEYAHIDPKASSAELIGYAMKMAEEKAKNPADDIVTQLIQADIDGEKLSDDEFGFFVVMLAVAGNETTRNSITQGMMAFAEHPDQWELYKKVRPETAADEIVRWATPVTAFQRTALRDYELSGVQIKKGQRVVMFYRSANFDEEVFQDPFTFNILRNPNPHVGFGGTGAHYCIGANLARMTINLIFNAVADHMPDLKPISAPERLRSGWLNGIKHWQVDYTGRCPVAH
protocol-notes: LC-MS substrate turnover assay (cholest-4-en-3-one)
Type: biochemical
study-conditions: estimated by Cheng-Prusoff, cholest-4-en-3-one Km CYP125 = 2.1 µM; read-out: CYP125A1 KI
attribute-measured: Ki (µM)
Report the figure in µM without appending any unit label.

Could you share which Ki value was measured for COc1ccc(C(C)Nc2ccc(Cc3ccncc3)cc2)cc1 (stereo not drawn) ?
1.2

Name the reported Ki value associated with the molecule "O=C(NCc1ccc2[nH]ccc2c1)c1ccc(Cc2ccncc2)cc1"
1.1

So what does the record say about Ki for "O=C(Nc1ccc(Cc2ccncc2)cc1)c1ccccc1" ?
1.3

* * *

For each of the compounds below, state its Δλmax (nm) CYP126, fragment screen.
target-of-assay: CYP126 (Mycobacterium tuberculosis, UniProt P9WPN9)
Sequence (P9WPN9 whole entry, the tested form may be a part): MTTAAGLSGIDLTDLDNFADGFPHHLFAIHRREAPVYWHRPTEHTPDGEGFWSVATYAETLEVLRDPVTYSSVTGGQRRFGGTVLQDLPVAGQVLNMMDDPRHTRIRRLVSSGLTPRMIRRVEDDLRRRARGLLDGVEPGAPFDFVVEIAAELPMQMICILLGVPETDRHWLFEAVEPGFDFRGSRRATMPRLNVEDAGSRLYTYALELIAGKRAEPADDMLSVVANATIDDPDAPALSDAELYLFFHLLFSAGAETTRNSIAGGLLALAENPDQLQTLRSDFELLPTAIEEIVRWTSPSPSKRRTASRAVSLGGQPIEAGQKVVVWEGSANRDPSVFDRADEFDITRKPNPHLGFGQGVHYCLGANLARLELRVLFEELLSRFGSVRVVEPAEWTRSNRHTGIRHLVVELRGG
study-conditions: fragment 1 mM, P450 4-6 µM; relative to DMSO (418 nm)
The reply should be a number in nm, with the unit left off.

Bench note: what Δλmax (nm) CYP126, fragment screen did "Cc1[nH]ncc1-c1ccccc1" show?
0

Which Δλmax (nm) CYP126, fragment screen is reported for this compound? "O=C1CCN(c2ccccc2)N1"
0

Fill in: Δλmax (nm) CYP126, fragment screen of "Nc1cc(Cl)nc(Cl)c1" is ___
0

Look at this compound and give its reported Δλmax (nm) CYP126, fragment screen. "O=c1ccc(Br)c[nH]1"
-1

Query (compound): "Nc1ccc(Cl)nn1" ; field requested: Δλmax (nm) CYP126, fragment screen
0

Query (compound): "Clc1nccc2ccc(Br)cc12" ; field requested: Δλmax (nm) CYP126, fragment screen
0

* * *

target-of-assay: CYP143 (Mycobacterium tuberculosis, UniProt P9WPL3)
Sequence (P9WPL3 whole entry, the tested form may be a part): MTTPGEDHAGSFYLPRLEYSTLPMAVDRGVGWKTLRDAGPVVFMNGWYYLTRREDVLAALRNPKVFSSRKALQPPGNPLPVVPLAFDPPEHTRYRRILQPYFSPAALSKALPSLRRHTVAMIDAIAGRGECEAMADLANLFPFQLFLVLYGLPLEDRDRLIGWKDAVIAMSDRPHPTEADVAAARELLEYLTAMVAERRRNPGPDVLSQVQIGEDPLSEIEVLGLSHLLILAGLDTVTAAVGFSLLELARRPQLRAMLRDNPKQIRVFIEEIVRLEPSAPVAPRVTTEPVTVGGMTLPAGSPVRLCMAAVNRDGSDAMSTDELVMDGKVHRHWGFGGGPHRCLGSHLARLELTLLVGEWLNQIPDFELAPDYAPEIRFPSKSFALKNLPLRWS
study-conditions: fragment 1 mM, P450 4-6 µM; relative to DMSO (416 nm)
attribute-measured: Δλmax (nm) CYP143, fragment screen

What does the record list as Δλmax (nm) CYP143, fragment screen for "Nc1ccccn1" ?
1 nm

I would be grateful if you could share the reported Δλmax (nm) CYP143, fragment screen for "Nc1ccc(-n2cccn2)cc1" .
1 nm

Please give the measured Δλmax (nm) CYP143, fragment screen for this compound: "Cc1cc(C(=O)O)[nH]n1"
-0.5 nm

Param item = "N#Cc1ccncc1" ; retrieve measured Δλmax (nm) CYP143, fragment screen.
-0.5 nm

# get_value(readout='Δλmax (nm) CYP143, fragment screen', item= "O=C(O)c1cncc(F)c1" )
1 nm

Entry "C#Cc1cccnc1" : reported Δλmax (nm) CYP143, fragment screen = ?
0 nm

Entry "O=C(O)c1ccc(-n2cccn2)cc1" has what Δλmax (nm) CYP143, fragment screen?
-0.5 nm

Request the reported Δλmax (nm) CYP143, fragment screen associated with "COc1ncccc1C(=O)O"
1 nm

Return reported Δλmax (nm) CYP143, fragment screen; argument: "Nc1ccc(Cl)nn1"
0 nm

Fill in: Δλmax (nm) CYP143, fragment screen of "Cc1ccc(=O)[nH]n1" is ___
0 nm

Fill blank: measured Δλmax (nm) CYP143, fragment screen of the compound "O=C(O)c1ccc(-c2cccnc2)cc1" is ____.
1 nm

Which Δλmax (nm) CYP143, fragment screen value is on record for "N#Cc1cccc(-n2ccnc2)c1" ?
2.5 nm

What does the record list as Δλmax (nm) CYP143, fragment screen for "OCc1ccc(Br)cn1" ?
0.5 nm

Which value of Δλmax (nm) CYP143, fragment screen has been reported for "O=C1CCN(c2ccccc2)N1" in the records?
1 nm

# Δλmax (nm) CYP143, fragment screen lookup, item "c1ccc(Cc2cccnc2)cc1"
2 nm

Given "c1ccc2c(c1)CCNC2" , state its recorded Δλmax (nm) CYP143, fragment screen.
1 nm

Sample "O=C(O)CCc1nc2ccccc2[nH]1" — what was its Δλmax (nm) CYP143, fragment screen?
0.5 nm

So what's the measured Δλmax (nm) CYP143, fragment screen for this one? "O=C(O)c1cccc(O)n1"
1 nm

Quick check: Δλmax (nm) CYP143, fragment screen of "COC(=O)c1ccnc(N)c1" ?
0.5 nm

Δλmax (nm) CYP143, fragment screen for "O=C(O)c1ccccc1-n1cccn1" ?
0 nm
